Consider the following sequences and their measured apparent KD of MS2 coat protein readings.
Test system: MS2 coat protein
Experiment: apparent KD of MS2 coat protein; designed switch direction (-1 OFF switch, 1 ON switch): -1; higher = weaker reporter binding
Conditions: input ligand: microRNA oligo, concentration not stated
Param answer (str): number followed by unit.

Field: example entries. Status: answers known.
INSERT INTO assay_data (sequence_text, metric_name, result) VALUES
  ('UACAUGAGGAUCACCCAUGUUUUGUCGUGUAUGGUAUUUAUCUAGGAUAUCAAUUGAUUUAUUUAUGAGAAGGAGAAUAUUAAU [JMF''s solution 15] (Eterna round: R96, puzzle: Exclusion NG 3)', 'apparent KD of MS2 coat protein', '26.8 nM'),
  ('UUGUUAUAUGUAGGAUAUGCAUAUUAUUAUUAUGCAGAAGGACAUGAGGAUCACCCAUGUGUAUUGUUAUUAUAUAUUAUAUAU [Title] (Eterna round: R96, puzzle: Exclusion NG 1)', 'apparent KD of MS2 coat protein', '16.5 nM'),
  ('AGAGUGCUGCGAGGAUAUACAUGAGGAUCACCCAUGUUUUCGUGUGAGGCAAAGCCUCACACGAUGUAGAAGGCGCAGUACUCA [Mat - Exclusion NG 2 - Mod of JL - D36] (Eterna round: R96, puzzle: Exclusion NG 2)', 'apparent KD of MS2 coat protein', '9.73 nM'),
  ('AGCUGUGGCCGAGGAUAUCCACAUGAGGAUCACCCAUGUCGAUACGCCGUUAAAGGCGAUAUAAGGGAGAAGGCGGUCUCAGCA [Eli eng2 - 052] (Eterna round: R96, puzzle: Exclusion NG 2)', 'apparent KD of MS2 coat protein', '6.69 nM');

Please examine the following record next.
Q: Item under review: ACAUGAGGAUCACCCAUGUCCGGCUGGUCUGUUCCGGCUGUCGAGGAUAUAGUUCGGUGUUCGCGCUAGAAGGCGGGAGCUGGA [Aenatbe mod 52] (Eterna round: R96, puzzle: Exclusion NG 3) . Reported apparent KD of MS2 coat protein?
Result: 104 nM

Values were extracted from the supplement of paper PMC9170038.
